System: THP-1 cells
Please assign 0.0 whenever GI50 is at or above 60 nM, and 1.0 whenever it is below.

                                    compound  category_label
 0  Cc1ncccc1-n1nc2c(c1C)C(c1ccc(Cl)cc1)N(c1cc(C)c(=O)n(C)c1)C2=O (centres unmarked)             0.0
 1  COc1c2c(nn1C)C(=O)N(c1cc(C)c(=O)n(C)c1)C2c1ccc(Cl)cc1 (centres unmarked)             0.0
 2  Cc1nn(C2CC2)c2c1[C@@H](c1ccc(Cl)cc1)N(c1cc(C)c(=O)n(C)c1)C2=O             1.0
 3  CCOC(=O)N1CC(n2nc(C)c3c2C(=O)N(c2cc(C)c4nnc(C)n4c2)C3c2ccc(Cl)cc2)C1 (centres unmarked)             0.0
 4  Cc1nn(C(C)C)c2c1C(c1ccc(Cl)cc1)N(c1cc(Cl)c(=O)n(C)c1)C2=O (centres unmarked)             0.0
 5  Cc1nn(C2CC2)c2c1C(c1ccc(Cl)cc1)N(c1cc(C)c3nnc(C)n3c1)C2=O (centres unmarked)             1.0
 6  CNC(=O)n1nc2c(c1C)C(c1ccc(Cl)cc1)N(c1cc(C)c(=O)n(C)c1)C2=O (centres unmarked)             0.0
 7  Cc1n[nH]c2c1[C@@H](c1ccc(Cl)cc1)N(c1cc(C)c3nnc(C)n3c1)C2=O             1.0
 8  Cc1nn(C2CC2)c2c1C(c1ccc(OC(F)(F)F)cc1)N(c1cc(C)c(=O)n(C)c1)C2=O (centres unmarked)             0.0
 9  CCc1c2c(nn1C(=O)N(C)C)C(=O)N(c1cc(C)c(=O)n(C)c1)C2c1ccc(Cl)cc1 (centres unmarked)             0.0
10  COc1ncccc1-n1nc(C)c2c1C(=O)N(c1cc(C)c(=O)n(C)c1)[C@H]2c1ccc(Cl)cc1             0.0
11  COc1nccc(-n2nc(C)c3c2C(=O)N(c2cc(C)c(=O)n(C)c2)C3c2ccc(Cl)cc2)n1 (centres unmarked)             0.0
12  Cc1nn(-c2ccnn2C)c2c1[C@@H](c1ccc(Cl)cc1)N(c1cc(C)c3nnc(C)n3c1)C2=O             1.0
13  Cc1nn(C2COC2)c2c1C(c1ccc(Cl)cc1)N(c1cc(C)c(=O)n(C)c1)C2=O (centres unmarked)             0.0
14  CCc1c2c(nn1C1CC1)C(=O)N(c1cc(C)c(=O)n(C)c1)C2c1ccc(Cl)cc1 (centres unmarked)             1.0
15  COc1ncccc1-n1nc(C)c2c1C(=O)N(c1cc(Cl)c(=O)n(C)c1)C2c1ccc(Cl)cc1 (centres unmarked)             0.0
16  Cc1nn(C)c2c1C(c1ccc(Cl)cc1)N(c1cc(C)c(=O)n(C)c1)C2=O (centres unmarked)             0.0
17  CCc1nn(CCOC)c2c1C(c1ccc(Cl)cc1)N(c1cc(C)c(=O)n(C)c1)C2=O (centres unmarked)             0.0
18  Cc1nn(C2CC2)c2c1[C@@H](c1ccc(Cl)cc1)N(c1cc(Cl)c(=O)n(C)c1)C2=O             0.0
19  Cc1nn(C(C)C)c2c1C(c1ccc(Cl)cc1F)N(c1cc(C)c(=O)n(C)c1)C2=O (centres unmarked)             0.0
20  COc1ncccc1-n1nc(C)c2c1C(=O)N(c1cc(C)c(=O)n(C)c1)[C@@H]2c1ccc(Cl)cc1             0.0
21  Cc1n[nH]c2c1C(c1ccc(F)cc1F)N(c1cc(C)c3nnc(C)n3c1)C2=O (centres unmarked)             0.0
